Assay: qHTS of pediatric cancer cell lines to identify multiple opportunities for drug repurposing: Confirmatory screen for SJ-GBM2 cells (AID 1347116);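 further: 48 hour compound exposure; nearly all actives have a fitted effect of over 60% in size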
Settings: SJ-GBM2 glioblastoma cells, viability; series mostly up to 45.9 µM
Protocol: Drug repurposing or repositioning has been offered as a strategy for drug development in oncology programs. […] [1] Shen, M et al. Quantitative high-throughput phenotypic screening of pediatric cancer cell lines identifies multiple opportunities for drug repurposing. […] Cells were assayed in growth media at a density of 500-1,000 cells/well. […] After a 15 min incubation at room temperature, samples were analyzed for luminescence intensity using a ViewLux High-throughput CCD imager equipped with clear filters.
Records with an inconclusive call do not appear. The source made the active and inactive calls. The call rests on the fitted dose curve; in most records, active means well fitted cell-killing curve with a large enough effect; inconclusive means small, poorly fitted or top-dose-only effect, or effect the other way; inactive means no such curve, though single readings can be large or run the other way.
Please answer using one outcome listed in YES for active, NO for inactive

*Q* Any idea what this test logged for CC1C(=O)OC2C(O)C34C5CC(C(C)(C)C)C36C(OC(=O)C6O)OC4(C(=O)O5)C12O (configuration not stated) ?
*A* NO

*Q* Recorded test call requested for "COc1cc([C@@H]2c3cc4c(cc3[C@@H](O[C@@H]3O[C@@H]5CO[C@@H](C)O[C@@H]5[C@H](O)[C@@H]3O)[C@H]3COC(=O)[C@H]23)OCO4)cc(OC)c1O"
*A* YES

*Q* # lookup: test call for "CO[C@H]1/C=C\O[C@@]2(C)Oc3c(C)c(O)c4c(O)c(c(C=NN5CCN(C6CCCC6)CC5)c(O)c4c3C2=O)NC(=O)C(C)=CC=C[C@H](C)[C@H](O)[C@@H](C)[C@@H](O)[C@@H](C)[C@H](OC(C)=O)[C@H]1C"
*A* NO

*Q* Short answer needed: outcome of this test for "COc1cc2ncnc(Nc3cc(Br)c(O)c(Br)c3)c2cc1OC" ?
*A* NO

*Q* How did this test come out for "C=CC(=O)Nc1cccc(Sc2nc(Nc3ccc(N4CCN(C)CC4)cc3)ncc2Cl)c1" ?
*A* YES

*Q* How was "O=C1Nc2ccc(I)cc2C1=Cc1cc(Br)c(O)c(Br)c1" classified in this test?
*A* NO

*Q* Tell me the recorded outcome of this test for "CCCCn1c(=O)n(Cc2ccccc2F)c(=O)c2[nH]c(Cc3ccc(NC(C)=O)cc3)nc21" .
*A* YES

*Q* Assay outcome for CCCC1OC2C[C@@H]3[C@H]4CCC5=CC(=O)C=C[C@]5(C)[C@H]4C(O)C[C@]3(C)[C@]2(C(=O)CO)O1 (some centres not stated) : what was it?
*A* YES

*Q* // outcome(item) with item = "CC(C)CN(C[C@H](O)[C@H](Cc1ccccc1)NC(=O)O[C@H]1CCOC1)S(=O)(=O)c1ccc(N)cc1"
*A* NO

*Q* Dear all, I need the recorded test outcome for "COc1ccc(-c2ccc3ncc4c(c3c2)n(-c2ccc(N3CCNCC3)c(C(F)(F)F)c2)c(=O)n4C)cn1" , thank you.
*A* YES

*Q* What is the recorded call for this compound in the test? "CC(C)n1c(C=C[C@H](O)C[C@H](O)CC(=O)O)c(-c2ccc(F)cc2)c2ccccc21"
*A* YES

*Q* For "CCC[C@H](N[C@@H](C)C(=O)N1[C@@H]2CCCC[C@H]2C[C@H]1C(=O)O)C(=O)OCC" , what call appears in the results of this test?
*A* NO
